Test system: U2OS
Assay: Incucyte cell viability with U2OS; also: filed as whole numbers so only -1 and 0 and 1 occur
Assay type: toxicity, cell-based
Conditions: human, 0 h, 10 µM, compound concentration 10 uM, replicate number 1, timepoint 0 hours
# Growth Rate per record follows
Keep it simple and answer with nothing but the number.

Completed entries (count: 4):
{"compound": "NS(=O)(=O)c1c(Cl)ccc(NC(=O)Nc2cccc(Cl)c2Cl)c1O", "assay_result": 0}
{"compound": "CCn1cc(-c2ccnc3[nH]c(-c4cccc(CN(C)C)c4)cc23)c(-c2ccc(NC(=O)N(C)C)cc2)n1", "assay_result": 1}
{"compound": "COCC(=O)NC/C=C/c1ccc2ncnc(Nc3ccc(Oc4ccc(C)nc4)c(C)c3)c2c1", "assay_result": 0}
{"compound": "O=c1ccn([C@@H]2O[C@H](COP(=O)([O-])OP(=O)([O-])O)[C@@H](O)[C@H]2O)c(=O)[nH]1.[Na+].[Na+]", "assay_result": 1}

Then this compound:
Param item = CC(C)OC(=O)C1=CN(C(=O)c2ccc(F)c(F)c2)CC(C)(C)c2c1[nH]c1ccccc21 [TUROFEXORATE ISOPROPYL] ; retrieve measured Growth Rate.
0

====

Tested on: U2OS
Experiment: Multiplex assay against U2OS
Type: toxicity, cell-based
Details: human, 12 h, 1 µM, compound concentration 1 uM, replicate 2
# binarize Population Normal (%): threshold 90% inclusive, high side T, low side F

{"compound": "CNC(=O)c1ccc(Nc2nc(OC3CCCC3)c3c(-c4ccc5nc(C)oc5c4)c[nH]c3n2)c(OC)c1", "assigned_label": "T"}
{"compound": "NC(=O)c1cccc(-c2cc(Nc3ccc(OC(F)(F)F)cc3)ncn2)c1", "assigned_label": "F"}

Textbook exercise: given the entry O=C(Nc1cccnn1)N1CCC(=Cc2cccc(Oc3ccc(C(F)(F)F)cn3)c2)CC1 , state whether its Population Normal (%) is greater than or equal to 90%.
F

Is it the case that CCN1CCN(Cc2ccc(Nc3ncc(F)c(-c4cc(F)c5nc(C)n(C(C)C)c5c4)n3)nc2)CC1.CS(=O)(=O)O has Population Normal (%) reaching or exceeding 90%?
T

Please indicate if the recorded Population Normal (%) for COC(=N)c1nc2ccc3ncnc(Nc4ccc(OC)cc4F)c3c2s1 meets or exceeds 90%.
T

Check the entry CCc1cccc(CC)c1NC(=O)c1nn(C)c2c1CCc1cnc(Nc3ccc(C(=O)NC4CCN(C)CC4)cc3OC(F)(F)F)nc1-2 : does Population Normal (%) equal or exceed 90%?
F

In plain terms: is recorded Population Normal (%) at least 90% for O=C1NC(=O)C(c2cnc3ccccn23)=C1c1cn2c3c(cc(F)cc13)CN(C(=O)N1CCCCC1)CC2 [LY-2090314] ?
F

# bool: Population Normal (%) of Cc1cc(C)c(S(=O)(=O)N(Cc2ccc(-c3cccc(S(C)(=O)=O)c3)cc2)Cc2ccc(C(F)(F)F)o2)c(C)c1 >= 90%
T

Exam item: decide whether the reported Population Normal (%) for CNc1cc(Oc2cc(C(=O)Nc3cc(N4CCN(C)CC4)cc(C(F)(F)F)c3)ccc2C)ncn1 is at least 90%.
T

I'd appreciate it if you could say whether CCCn1c(=O)c2[nH]c(-c3cnn(Cc4cccc(C(F)(F)F)c4)c3)nc2n(CC)c1=O [GS 6201] has Population Normal (%) at least equal to 90%.
T

Has S=C(NCCCc1c[nH]cn1)NCCCN(Cc1ccc(Cl)c(Cl)c1)c1ccc(Br)cn1 a recorded Population Normal (%) greater than or equal to 90%?
F

Numbers sourced from ChEMBL document CHEMBL4689842.
